Test: Human HepG2 cell viability assay in 384 well format
Format: toxicity, cell-based
Design: dose 125 nL, time 70.5 hour; concentration not given beside the values
Details: HepG2 cells, read-out: Inhibition
Listed here: items and their measured cytotoxicity at 70.5 h.
Report the figure in % without appending any unit label.

Below: 4 compounds and their reported cytotoxicity at 70.5 h.
>  <COMPOUND>
CC1CCc2nn(CCNC(=O)Cc3cccs3)c(=O)cc2C1 (stereo unspecified)

>  <cytotoxicity at 70.5 h / %>
-2.17

$$$$
>  <COMPOUND>
CCc1cc(N2CCC(NCCc3nc(C)c(C)s3)CC2)nc(C)n1

>  <cytotoxicity at 70.5 h / %>
-12.2

$$$$
>  <COMPOUND>
Cc1cccc(Nc2cc(C)nc(C3CCCCN3CC(N)=O)n2)n1 (stereo unspecified)

>  <cytotoxicity at 70.5 h / %>
-4.2

$$$$
>  <COMPOUND>
COCC(=O)N1CCC2(CC1)CN(CC1CC1)c1ccc(F)cc12

>  <cytotoxicity at 70.5 h / %>
2.37

$$$$

Would you kindly share the measured cytotoxicity at 70.5 h for O[C@@H]1CCN(CC2CCOC2)[C@H]1Cc1cccnc1 (stereo partly specified) ? -12.1

Would you kindly share the measured cytotoxicity at 70.5 h for "Cc1ccc(-c2nnc(SCC(=O)O)n2-c2ccccc2)cc1" ? -10.9

###

Listed here: items and their measured cytotoxicity at 70.5 h.
Assay: Human HepG2 cell viability assay in 384 well format
Assay type: toxicity, cell-based
Design: dose 125 nL, time 70.5 hour; concentration not given beside the values
Details: HepG2 cells, read-out: Inhibition
Report the figure in % without appending any unit label.

Below: 5 molecules and their reported cytotoxicity at 70.5 h.
>  <MOLECULE>
CC(C)c1nccn1Cc1cc(C(=O)NCC(C)n2ccnc2)n[nH]1 (configuration not stated)

>  <QUANTITATIVE READOUT>
-6.98

$$$$
>  <MOLECULE>
CCc1csc(C2CCCN(C(=O)c3ccc(OC)nc3)C2)n1 (configuration not stated)

>  <QUANTITATIVE READOUT>
-1.94

$$$$
>  <MOLECULE>
COc1cccc(CC2CN(C3CCN(C(C)=O)CC3)CCO2)c1 (configuration not stated)

>  <QUANTITATIVE READOUT>
-5.79

$$$$
>  <MOLECULE>
COc1ccccc1C1CCN(c2ccc3cc[nH]c3n2)CC1

>  <QUANTITATIVE READOUT>
-7.33

$$$$
>  <MOLECULE>
CC(C)CC1CC(=O)Nc2c1cnn2Cc1ccco1 (configuration not stated)

>  <QUANTITATIVE READOUT>
-22.8

$$$$

Would you kindly share the measured cytotoxicity at 70.5 h for CCC(NC(=O)CN(C)Cc1ccc(C)o1)c1ccc(Br)cc1 (configuration not stated) ? -1.78

Would you kindly share the measured cytotoxicity at 70.5 h for CNc1ccnc(N2CCCC(C(=O)c3ccccn3)C2)n1 (configuration not stated) ? 24.1

Would you kindly share the measured cytotoxicity at 70.5 h for CCn1cc(CNCC(c2ccc(Cl)cc2)n2cccn2)cn1 (configuration not stated) ? -14.8

Would you kindly share the measured cytotoxicity at 70.5 h for O=C1CCC2(CCCN(c3ncc(F)cn3)CC2)N1Cc1ccccc1 (configuration not stated) ? 1.63

###

Experiment: Human HepG2 cell viability assay in 384 well format
Assay type: toxicity, cell-based
Design: dose 125 nL, time 70.5 hour; concentration not given beside the values
Conditions: HepG2 cells, read-out: Inhibition
PROPERTY NAME: cytotoxicity at 70.5 h (%)
Report the figure in % without appending any unit label.

Below: 10 compounds and their reported cytotoxicity at 70.5 h.
>  <COMPOUND>
CC(=O)c1ccc(S(=O)(=O)NCc2cccnc2N(C)C)cc1

>  <PROPERTY NAME>
cytotoxicity at 70.5 h

>  <QUANTITATIVE READOUT>
-3.14

$$$$
>  <COMPOUND>
CNCc1ccc([C@@H]2CN(C(C)=O)C[C@H]2C(N)=O)cc1

>  <PROPERTY NAME>
cytotoxicity at 70.5 h

>  <QUANTITATIVE READOUT>
-7.99

$$$$
>  <COMPOUND>
Cc1cc2c(=O)n3c(nc2s1)CCN(Cc1c[nH]cn1)CC3

>  <PROPERTY NAME>
cytotoxicity at 70.5 h

>  <QUANTITATIVE READOUT>
1

$$$$
>  <COMPOUND>
Cc1cccc(CN2C[C@@H]3CN(C(=O)c4cnccn4)C[C@@H]3C2=O)n1

>  <PROPERTY NAME>
cytotoxicity at 70.5 h

>  <QUANTITATIVE READOUT>
-0.986

$$$$
>  <COMPOUND>
Cc1noc(C)c1C(=O)NCc1ccc(N2CCOCC2)nc1

>  <PROPERTY NAME>
cytotoxicity at 70.5 h

>  <QUANTITATIVE READOUT>
-8.43

$$$$
>  <COMPOUND>
Cc1nnc(SCc2cc(=O)n3c4c(sc3n2)CCCC4)[nH]1

>  <PROPERTY NAME>
cytotoxicity at 70.5 h

>  <QUANTITATIVE READOUT>
-8.32

$$$$
>  <COMPOUND>
Cc1nnc(C(C)Nc2cccc(COCCOC(C)C)c2)o1 (configuration not stated)

>  <PROPERTY NAME>
cytotoxicity at 70.5 h

>  <QUANTITATIVE READOUT>
-1.57

$$$$
>  <COMPOUND>
CN1CC(=O)N(c2ccccc2)CC12CCN(C(=O)c1ccnnc1)C2 (configuration not stated)

>  <PROPERTY NAME>
cytotoxicity at 70.5 h

>  <QUANTITATIVE READOUT>
24.2

$$$$
>  <COMPOUND>
Cc1ccc(NC(C(N)=O)c2ccc(F)cc2)cc1 (configuration not stated)

>  <PROPERTY NAME>
cytotoxicity at 70.5 h

>  <QUANTITATIVE READOUT>
-0.0602

$$$$
>  <COMPOUND>
O=C(NCC[S+]([O-])c1ccccc1)NCC(F)(F)F (configuration not stated)

>  <PROPERTY NAME>
cytotoxicity at 70.5 h

>  <QUANTITATIVE READOUT>
-7.27

$$$$

Would you kindly share the measured cytotoxicity at 70.5 h for "Cc1csc(N2CCCN(C(=O)c3nccnc3N)CC2)n1" ? -0.698

Would you kindly share the measured cytotoxicity at 70.5 h for "COCC(=O)N1CC(c2ccnc(Nc3ccc(C)cn3)n2)C1" ? -10.9

Would you kindly share the measured cytotoxicity at 70.5 h for O=S(=O)(C1CC1)N1CCC2(COCc3cnc(N4CCOCC4)nc32)C1 (configuration not stated) ? 4.94

Would you kindly share the measured cytotoxicity at 70.5 h for "Cc1nn(C)cc1CN(C)c1nccc(-c2cn(C)nc2C)n1" ? -0.948

Would you kindly share the measured cytotoxicity at 70.5 h for CCC(=O)c1cccc(S(=O)(=O)NC(C)C#N)c1 (configuration not stated) ? -11

###

Assay: Human HepG2 cell viability assay in 384 well format
Type: toxicity, cell-based
Parameters: dose 125 nL, time 70.5 hour; concentration not given beside the values
Details: HepG2 cells, read-out: Inhibition
PROPERTY NAME: cytotoxicity at 70.5 h (%)
Report the figure in % without appending any unit label.

Would you kindly share the measured cytotoxicity at 70.5 h for "c1cc(-c2nc(CN3CCn4c(nnc4C4CC4)C3)cs2)cs1" ? -25.2

Would you kindly share the measured cytotoxicity at 70.5 h for "N#CCCN(Cc1ccccn1)Cn1cc(Cl)cn1" ? 29.9

Would you kindly share the measured cytotoxicity at 70.5 h for "CCc1nnc2n1CCN(C(=O)c1csc(-c3cnn(C)c3)n1)C2" ? -6.07

Would you kindly share the measured cytotoxicity at 70.5 h for "CCS(=O)(=O)N1CCC2(CC1)CN(c1cncnc1)C(=O)CO2" ? -15.9

Would you kindly share the measured cytotoxicity at 70.5 h for "CNc1ncc(CN(C)Cc2cc(O)c3cc(F)ccc3n2)cn1" ? -8.18

###

Listed here: items and their measured cytotoxicity at 70.5 h.
Assay: Human HepG2 cell viability assay in 384 well format
Type: toxicity, cell-based
Parameters: dose 125 nL, time 70.5 hour; concentration not given beside the values
Conditions: HepG2 cells, read-out: Inhibition
Report the figure in % without appending any unit label.

>  <COMPOUND>
CCCN1C[C@H]2CC[C@@H]1CN(c1nnc(C(C)C)s1)C2

>  <OUTPUT UNIT>
%

>  <QUANTITATIVE READOUT>
27.1

$$$$

Would you kindly share the measured cytotoxicity at 70.5 h for "COCCN(Cc1ccncc1)C(=O)CCSCc1ccc(F)cc1" ? 20

Would you kindly share the measured cytotoxicity at 70.5 h for "O=C(Nc1cc(CCC2CCN(CCO)CC2)ccn1)c1ccccn1" ? 45.9

Would you kindly share the measured cytotoxicity at 70.5 h for "O=C(Cc1noc2ccccc12)N1CCC(Nc2cccnn2)CC1" ? -5.81

Would you kindly share the measured cytotoxicity at 70.5 h for Cc1cc(-c2cncnc2)nc(C2CCCN2S(C)(=O)=O)n1 (stereo unspecified) ? -2.87

Would you kindly share the measured cytotoxicity at 70.5 h for NC(=O)C1(c2cnccn2)CCCN1Cc1ccc(Cl)cc1 (stereo unspecified) ? -9.51

Would you kindly share the measured cytotoxicity at 70.5 h for "Cc1cc(CN(C)C(=O)c2cccc(N3CCCC3=O)c2)no1" ? -9.25

Would you kindly share the measured cytotoxicity at 70.5 h for CC(O)CN1CCN(Cc2csc(-c3cnn(C)c3)n2)CC1 (stereo unspecified) ? -9.86

Would you kindly share the measured cytotoxicity at 70.5 h for "CN(CCCc1n[nH]c(N)c1C#N)C(=O)NC1CC1" ? -2.78

Would you kindly share the measured cytotoxicity at 70.5 h for "CCOc1cc(CNCc2nc(C)cc(=O)[nH]2)c(Cl)cc1OC(C)C" ? -3.61

Would you kindly share the measured cytotoxicity at 70.5 h for "CN(C)C(=O)[C@H]1C[C@@H]2CCN(Cc3ccoc3)C[C@@H]2O1" ? -13.4
